biological target: c-Src SH2; assay: SH2 binding enrichment of the phosphorylated peptide, bacterial display (enrichment ratio); higher = better substrate or ligand; peptides without Tyr show the background
SH2 binding enrichment of 0.7 or higher: Y. Under 0.7: N.

Incoming: Is the recorded value of SH2 binding enrichment equal to or greater than 0.7 for this sequence? NCLREYVAGRF [CRB1_Y711]
Outgoing: N

Incoming: Is the recorded value of SH2 binding enrichment equal to or greater than 0.7 for this sequence? HLELNYKEDEY [MME_Y502_Y497H]
Outgoing: N

Incoming: Is the recorded value of SH2 binding enrichment equal to or greater than 0.7 for this sequence? SPDMLYQFLKQ [RPAP3_Y567_YF]
Outgoing: N

Incoming: Is the recorded value of SH2 binding enrichment equal to or greater than 0.7 for this sequence? SDGHEYIFVDR [PDGFRB_Y579_P584R_YF]
Outgoing: N

Incoming: Is the recorded value of SH2 binding enrichment equal to or greater than 0.7 for this sequence? SKAFAYVHFDS [PABPC5_Y149_G146A_YF]
Outgoing: Y

Incoming: Is the recorded value of SH2 binding enrichment equal to or greater than 0.7 for this sequence? AESPEYVHMFT [FAM111A_Y511_YF]
Outgoing: N

Incoming: Is the recorded value of SH2 binding enrichment equal to or greater than 0.7 for this sequence? LFMGDYVGRGF [PPP2CA_Y86_D88G_YF]
Outgoing: N

Incoming: Is the recorded value of SH2 binding enrichment equal to or greater than 0.7 for this sequence? EALSLYTKLMN [STAM_Y371]
Outgoing: Y

Incoming: Is the recorded value of SH2 binding enrichment equal to or greater than 0.7 for this sequence? RPDSPYSRPHD [DOK2_Y271]
Outgoing: Y

Incoming: Is the recorded value of SH2 binding enrichment equal to or greater than 0.7 for this sequence? KFACSYTPVKA [FLNB_Y708_T703K_YF]
Outgoing: Y

Incoming: Is the recorded value of SH2 binding enrichment equal to or greater than 0.7 for this sequence? WDLSEYSFKDP [ITGA3_Y237_YF]
Outgoing: N

Incoming: Is the recorded value of SH2 binding enrichment equal to or greater than 0.7 for this sequence? CTSIHYNFMCN [TP53_Y234_T231S_YF]
Outgoing: Y

Incoming: Is the recorded value of SH2 binding enrichment equal to or greater than 0.7 for this sequence? KKRSSYGNSSD [SELENOK_Y52_R50S]
Outgoing: N

----------
tested on: Fer (mouse); assay: phosphorylation enrichment, bacterial display (enrichment ratio); higher = better substrate or ligand; peptides without Tyr show the background
phosphorylation enrichment for assorted sequences
Answer field: number only, no words.

Would you please look over these solved cases?
* AGQEGYDRLRP [RAC1_Y64_D63G] | 0.347
* SHKELYKWFTS [DYNC1H1_Y3051_E3048K] | 0.574
* LEKRAYICAHP [ACAD9_Y611] | 0.456
* TFLRTYTDTMQ [TSPAN7_Y124_A127T] | 0.501
* PFQGAYLEINK [MYO1B_Y967] | 0.401

Tested on Fer (mouse), the item TNRSFYFKPSL [NUP153_Y382_V381F] showed phosphorylation enrichment equal to 0.406

Tested on Fer (mouse), the item RDHYGYRQSVT [CD55_Y245] showed phosphorylation enrichment equal to 0.748

Tested on Fer (mouse), the item KGNMFYENSFA [EGFR_Y113_R108K_YF] showed phosphorylation enrichment equal to 1.8

Tested on Fer (mouse), the item FENGEYIIRQG [PRKG1_Y247_YF] showed phosphorylation enrichment equal to 0.557

Tested on Fer (mouse), the item IVTLKYPIEHG [ACTB_Y69_L65V] showed phosphorylation enrichment equal to 0.489

----------
biological target: c-Src SH2; assay: SH2 binding enrichment of the phosphorylated peptide, bacterial display (enrichment ratio); higher = better substrate or ligand; peptides without Tyr show the background
Lab note: class by SH2 binding enrichment, see bin A (below 0.5), bin B (0.5 to below 0.7), bin C (0.7 or more)

Example results:
• KEAALYPHLPP [SQSTM1_Y383] = bin A
• PFFTSYPPSPD [GDAP2_Y491_YF] = bin A
• FGYPGYQCKHY [TIMP3_Y177_S179C] = bin C
• LITILYIGFLG [KCNQ1_Y267_T265I] = bin C
• GHLYAYDWIRI [BEST1_Y227_S231R] = bin C

Turning now to a further sequence:
Incoming: Band for GNLLIYTEFGK [HGD_Y166] ?
Outgoing: bin A

----------
phosphorylation enrichment for assorted sequences
molecular target: Jak2 (UniProt O60674); assay: phosphorylation enrichment, bacterial display (enrichment ratio); higher = better substrate or ligand; peptides without Tyr show the background
Sequence (O60674 whole entry, looked up): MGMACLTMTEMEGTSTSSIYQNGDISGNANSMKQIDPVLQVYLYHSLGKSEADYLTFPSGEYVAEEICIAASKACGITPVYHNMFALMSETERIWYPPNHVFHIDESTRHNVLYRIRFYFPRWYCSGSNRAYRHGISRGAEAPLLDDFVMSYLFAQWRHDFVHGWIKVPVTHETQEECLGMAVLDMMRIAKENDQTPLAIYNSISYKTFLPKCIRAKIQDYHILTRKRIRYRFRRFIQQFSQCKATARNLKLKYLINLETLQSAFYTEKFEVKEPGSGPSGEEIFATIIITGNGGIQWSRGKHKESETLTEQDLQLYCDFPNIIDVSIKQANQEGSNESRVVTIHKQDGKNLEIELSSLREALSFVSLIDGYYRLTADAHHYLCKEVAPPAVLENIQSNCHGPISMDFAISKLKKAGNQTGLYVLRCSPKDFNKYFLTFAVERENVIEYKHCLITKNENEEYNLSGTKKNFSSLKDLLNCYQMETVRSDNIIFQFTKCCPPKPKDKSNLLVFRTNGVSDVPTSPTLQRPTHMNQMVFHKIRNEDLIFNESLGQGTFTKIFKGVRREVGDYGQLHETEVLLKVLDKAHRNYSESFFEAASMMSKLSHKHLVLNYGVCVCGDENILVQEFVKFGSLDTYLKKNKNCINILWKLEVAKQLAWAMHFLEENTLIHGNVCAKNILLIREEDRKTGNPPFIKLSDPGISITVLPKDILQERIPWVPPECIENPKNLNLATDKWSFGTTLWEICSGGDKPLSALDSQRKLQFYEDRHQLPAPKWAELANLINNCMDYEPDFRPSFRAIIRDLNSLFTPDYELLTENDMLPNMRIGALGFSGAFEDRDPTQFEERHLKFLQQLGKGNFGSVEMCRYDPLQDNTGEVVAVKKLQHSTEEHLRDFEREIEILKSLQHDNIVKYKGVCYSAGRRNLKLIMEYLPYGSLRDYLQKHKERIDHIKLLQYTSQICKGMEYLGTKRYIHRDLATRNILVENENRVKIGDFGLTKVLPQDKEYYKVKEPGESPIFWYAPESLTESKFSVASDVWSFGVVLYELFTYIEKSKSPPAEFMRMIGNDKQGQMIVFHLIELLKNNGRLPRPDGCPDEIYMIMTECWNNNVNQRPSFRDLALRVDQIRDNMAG
Answer field: number only, no words.

Would you please look over these solved cases?
- GSETPYMDRTP [ESS2_Y335_V336M]: 0.499
- GEEIKDMLWLS [OTC_Y55_Y55D]: 0.822
- AHAGKYGAEAL [HBA1_Y25_E24K]: 0.544

Short answer for GGQVFHNSEYG [FLT4_Y1333_Y1333H] : phosphorylation enrichment was 0.67

Short answer for RRGMPYGGLGD [TGM1_Y312_R315L] : phosphorylation enrichment was 0.352

Short answer for HELYVYKSDEN [DOCK3_Y548_C550S] : phosphorylation enrichment was 1.75

Short answer for VDSNPYSHLMA [UBA5_Y53_R55H] : phosphorylation enrichment was 0.577

----------
biological target: Fyn (UniProt P06241); assay: phosphorylation enrichment, bacterial display (enrichment ratio); higher = better substrate or ligand; peptides without Tyr show the background
Sequence (P06241 whole entry, looked up): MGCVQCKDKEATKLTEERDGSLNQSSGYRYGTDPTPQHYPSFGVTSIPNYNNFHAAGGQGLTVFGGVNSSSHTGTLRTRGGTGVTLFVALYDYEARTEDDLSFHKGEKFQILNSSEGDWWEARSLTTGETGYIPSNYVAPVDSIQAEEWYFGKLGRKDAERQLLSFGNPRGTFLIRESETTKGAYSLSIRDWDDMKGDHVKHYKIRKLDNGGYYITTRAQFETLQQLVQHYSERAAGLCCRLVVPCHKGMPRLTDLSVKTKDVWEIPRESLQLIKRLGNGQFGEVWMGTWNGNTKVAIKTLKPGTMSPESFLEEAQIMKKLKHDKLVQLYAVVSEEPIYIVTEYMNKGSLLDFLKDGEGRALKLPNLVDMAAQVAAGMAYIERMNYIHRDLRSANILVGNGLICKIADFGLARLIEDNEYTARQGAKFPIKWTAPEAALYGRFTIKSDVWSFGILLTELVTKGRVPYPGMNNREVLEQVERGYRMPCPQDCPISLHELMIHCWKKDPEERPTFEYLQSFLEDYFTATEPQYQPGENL
Recorded Metric: phosphorylation enrichment

Would you please look over these solved cases?
- SVVVLYEPPEV [TP53_Y220_P219L]: 0.59
- EFGFRYELVQY [UGGT2_Y1289_Y1285F]: 0.329
- GKMPQYLESMQ [CYB5R3_Y130_S128P]: 0.537

Let's switch to this sequence now.
Short answer for AEPTGYSAELS [EZR_Y499] : phosphorylation enrichment was 0.524

----------
tested on: Fer (mouse); assay: phosphorylation enrichment, bacterial display (enrichment ratio); higher = better substrate or ligand; peptides without Tyr show the background
phosphorylation enrichment for assorted sequences
Answer field: number only, no words.

- YPKVRYHWLVL [APTX_Y214_A212V]: 0.506
- RFVTRHIFNRE [HLA-DQB1_Y62_Y62H_YF]: 0.43

Let's switch to this sequence now.
Short answer for FLQTDYTSQVS [FRMPD1_Y846] : phosphorylation enrichment was 0.451

----------
SH2 binding enrichment for assorted sequences
target: SHP2-C SH2; assay: SH2 binding enrichment of the phosphorylated peptide, bacterial display (enrichment ratio); higher = better substrate or ligand; peptides without Tyr show the background

Short answer for EATKVYLDDPT [G6PD_Y322_G321V] : SH2 binding enrichment was 0.746

Short answer for SGPRRYTIATL [TTR_Y125_A129T] : SH2 binding enrichment was 0.723

Short answer for RNNTEYVRDIG [MUSK_Y577_I575T] : SH2 binding enrichment was 0.645

Short answer for LQIPMYEVQWK [KIT_Y553_K550I] : SH2 binding enrichment was 1.06

Short answer for KFLENYFDLKK [MMP3_Y41_YF] : SH2 binding enrichment was 0.709

Short answer for ESMQSYDLDYP [UNC13B_Y243_D238E] : SH2 binding enrichment was 0.538

Short answer for EVRTQYEEIAQ [KRT76_Y361_A359T] : SH2 binding enrichment was 0.967

Short answer for PADSGYPAFLG [ATP6V1A_Y374_YF] : SH2 binding enrichment was 0.502

Short answer for HGAKVYIDPFT [EPHB4_Y590_T587A] : SH2 binding enrichment was 0.668

----------
tested on: Fer (mouse); experiment: phosphorylation enrichment, bacterial display (enrichment ratio); higher = better substrate or ligand; peptides without Tyr show the background
phosphorylation enrichment of 0.5 or higher: Yes. Under 0.5: No.

Example results:
* TLQNMYGCDVG [HLA-B_Y123_S121N] | Yes
* DHPSEYAARQL [ANXA13_Y90_R86H] | No
* PFRQWYESHFA [RPS8_Y113_YF] | Yes
* IRTDAYVWAMT [RPE65_Y89_R91W] | Yes
* GRLPEYNTPIA [CCDC151_Y542_R545P] | No
* CTTIHFNYMCN [TP53_Y234_Y234F] | Yes

Incoming: Is the recorded value of phosphorylation enrichment equal to or greater than 0.5 for this sequence? DKGTLYIAEQI [PLBD1_Y375_V377A]
Outgoing: No

Incoming: Is the recorded value of phosphorylation enrichment equal to or greater than 0.5 for this sequence? IDFARYWHGDD [MMP11_Y162]
Outgoing: Yes

Incoming: Is the recorded value of phosphorylation enrichment equal to or greater than 0.5 for this sequence? GSSEGYLHMVH [NIPBL_Y247_D246G]
Outgoing: No

Incoming: Is the recorded value of phosphorylation enrichment equal to or greater than 0.5 for this sequence? GTAPSYGNPSS [CD19_Y378]
Outgoing: No

Incoming: Is the recorded value of phosphorylation enrichment equal to or greater than 0.5 for this sequence? APSEFYDGDHD [HDAC3_Y414_N411S]
Outgoing: Yes

Incoming: Is the recorded value of phosphorylation enrichment equal to or greater than 0.5 for this sequence? KLKEKYQKDIA [HMGB1_Y155_E156Q]
Outgoing: Yes

Incoming: Is the recorded value of phosphorylation enrichment equal to or greater than 0.5 for this sequence? PVKAAYQKVVA [HBB_Y131_Q128K]
Outgoing: Yes

Incoming: Is the recorded value of phosphorylation enrichment equal to or greater than 0.5 for this sequence? KEAALYPHLPP [SQSTM1_Y383]
Outgoing: No

Incoming: Is the recorded value of phosphorylation enrichment equal to or greater than 0.5 for this sequence? FFRKFCNKSED [RYR1_Y4864_Y4864C]
Outgoing: No

Incoming: Is the recorded value of phosphorylation enrichment equal to or greater than 0.5 for this sequence? WIPIQDPIISE [NOG_Y222_Y222D]
Outgoing: Yes

Incoming: Is the recorded value of phosphorylation enrichment equal to or greater than 0.5 for this sequence? SGTFQYIIAKF [FOXL2_Y83_I80T_YF]
Outgoing: No

Incoming: Is the recorded value of phosphorylation enrichment equal to or greater than 0.5 for this sequence? NHFKIYNLFAE [PTEN_Y68_C71Y_YF]
Outgoing: Yes

Incoming: Is the recorded value of phosphorylation enrichment equal to or greater than 0.5 for this sequence? LLDGEYFTLQI [TP53_Y327_P322L]
Outgoing: Yes

Origin of values: the supplement of paper PMC10065799
